Values were extracted from PubChem BioAssay (NCI).

Test system: CCRF-CEM leukemia
Assay: NCI-60 one-dose screen, 48 h
Settings: 10 µM unless noted
The panel holds about 83,000 compounds, 20% with a hit somewhere; the sample as a whole holds those more often. Active and inactive are the calls of the source. How the source made its calls: active means growth percent below 10; inactive means the rest.
// allowed return values: 1 for active, -1 for inactive

C=C(C)[C@@H]1CC[C@]2(C(=O)N3CCN(CC)CC3)CC[C@]3(C)[C@H](CC[C@@H]4[C@@](C)(CCC(=O)N5CCN(CC)CC5)[C@H](C(=C)C)CC[C@]43C)[C@@H]12 = -1
O=C(/C(=C(\C(=O)c1ccccc1)c1ccccc1)c1ccccc1)c1ccccc1 = -1
Cn1cc(-c2nc(-c3cn(C)c4ncccc34)cs2)c2cc(F)ccc21 = -1
N#CC1=C(N)Oc2c(c(N)nn2-c2ccccc2)C1c1ccc(Cl)cc1 (stereo not drawn) = -1
O=P(O)(c1ccccc1)c1ccccc1I = -1

Data request: Please let me know the test result on file for OCC1OC(n2cnc3c(Cl)ncnc32)CC1O (stereo not drawn) .
Data returned: -1

Data request: Please let me know the test result on file for CCN(CC)c1ccc(/C=C/c2cc(C)c3ccccc3n2)cc1 .
Data returned: -1

---

System: SF-539 CNS
Assay: NCI-60 one-dose screen, 48 h
Settings: 10 µM unless noted
This is part of a sample that, as a whole, favours compounds with a hit. Of some 83,000 tested, about 20% had one in any assay. Activity calls are given as the source filed them. The calls were made as follows: active = growth percent below 10; inactive = the rest.
// allowed return values: label 1 for active, label 0 for inactive

Below, 3 compounds whose answers are already recorded.
Cc1nc([P+](c2ccccc2)(c2ccccc2)c2ccccc2)c(Sc2sc(-c3ccccc3)nc2[P+](c2ccccc2)(c2ccccc2)c2ccccc2)o1 = label 0
Cc1cccc(C)c1NC(=O)CSC(=S)N1CCCCC1 = label 0
Cc1cc(C)n(Cc2cc(C(C)(C)C)cc(C(C)(C)C)c2)c(=O)c1C#N = label 0

Data request: Please let me know the test result on file for CCCC1CCCCN1C(=O)OCC(C)C (configuration not stated) .
Data returned: label 0

Data request: Please let me know the test result on file for Oc1ccccc1/C=N\NC(=S)Nc1ccc(F)cc1 .
Data returned: label 0

---

System: TK-10 renal
Experiment: NCI-60 one-dose screen, 48 h (100 = growth as untreated, 0 = no growth, -100 = all killed)
Settings: 10 µM unless noted
The panel holds about 83,000 compounds, 20% with a hit somewhere; the sample as a whole holds those more often.
measurement-kind: growth (%)
One number for each entry, in %.

O=C1C(Cl)=C(Nc2ccc(S(=O)(=O)c3ccc(NC4=C(Cl)C(=O)c5ccccc5C4=O)cc3)cc2)C(=O)c2ccccc21 = -58.7
Cc1ccc(N(CC(=O)Nc2ccc(S(=O)(=O)NC3CCN(C)CC3)cc2)S(=O)(=O)c2ccc(Cl)cc2)cc1 = 105
Cn1cc(-c2csc(-c3cn(C(=O)OC(C)(C)C)c4ccccc34)n2)c2cccnc21 = 102

Dear reader, for each entry below, please note its growth.
1. CN(C)c1cccc2[nH]c(-c3[nH]ncc3Nc3ccnc(N)n3)nc12
2. O=C1c2cccc3cccc(c23)C(=O)N1CC#Cc1ccc2c3c(cccc13)C(=O)N(CCN1CCNCC1)C2=O

Data returned:
[-30.1, 141]

---

I'd appreciate it if you could supply growth values for the items below.
Tested on: SK-OV-3 ovarian
Test: NCI-60 one-dose screen, 48 h (100 = growth as untreated, 0 = no growth, -100 = all killed)
Details: 10 µM unless noted
Procedure: Growth inhibition of the SK-OV-3 human tumor cell line is measured as a screen for anti-cancer activity. Cells are grown in 96 well plates and exposed to the test compound for 48 hours. Compounds are tested at a single concentration, which is 10^-5 M for most compounds. The reported endpoint is percent growth (GI% or GIPRCNT), where numbers from 0 - 100% represent growth inhibition, and numbers from -100% - 0 represent cell death. For example, a value of 40 represents 60% growth inhibition. […]
The panel holds about 83,000 compounds, 20% with a hit somewhere; the sample as a whole holds those more often.
One number for each entry, in %.

COC(=O)[C@]12CC[C@@H](C)[C@H](C)[C@@H]1C1=CC[C@@H]3[C@@]4(C)C[C@@H](O)[C@H](O)[C@@](C)(CO)C4=CC[C@@]3(C)[C@]1(C)CC2 = -5.82
CC(C)(C)n1cc(-c2ccnc(NCCCNS(=O)(=O)c3ccc(Cl)cc3)c2)c(-c2cccc(F)c2)n1 = 91.7
O=c1c2sc3ncc(Br)cc3c2ncn1-c1cccc(Cl)c1 = 67.6
CC1(C)C(=O)/C(=C\c2cccnc2)C[C@]2(C)[C@H]3CC[C@@H]4[C@@H](C(=O)/C=C/c5ccncc5)CC[C@@]4(C)[C@]3(C)CC[C@@H]12 = 64.2
c1ccc2[nH]c(-c3cc(-c4ccc5c(c4)OCO5)n[nH]3)nc2c1 = 76.9
Cc1ccncc1C(=O)O = 137
NS(=O)(=O)c1ccc(CCNC(=O)/C=C/c2ccc(Cl)cc2)cc1 = 105
Cc1ccc(S(=O)(=O)Nc2ccc(-c3cc(-c4cccc(F)c4)c(C#N)c(N)n3)cc2)cc1 = 71.8

Read the next record carefully.
# compound COc1ccc2c(c1)c(-c1nc(-c3cn(C)c4ncccc34)cs1)cn2CCCN1CCCCC1 ; its growth = 89.8

---

Test system: SW-620 colon
Assay: NCI-60 one-dose screen, 48 h
Details: 10 µM unless noted
About 83,000 compounds went through this panel and 20% of them were active in at least one assay; those are over-represented in the sample as a whole. Activity calls are given as the source filed them. Rule for the calls: active = growth percent below 10; inactive = the rest.
// allowed return values: active, inactive

Cn1cc(-c2nc(-c3c[nH]c4ncccc34)cs2)c2cc(F)ccc21 = inactive

Data request: Please let me know the test result on file for Cc1cc(Cl)c2c(N(C)C)cccc2n1 .
Data returned: inactive

Data request: Please let me know the test result on file for O=C(/C=C/c1ccc2ccccc2c1)Nc1ncc(Cc2ccccc2)s1 .
Data returned: inactive

Data request: Please let me know the test result on file for Cn1cc(-c2csc(-c3c[nH]c4ccccc34)n2)c2cccnc21 .
Data returned: inactive

Data request: Please let me know the test result on file for CC(=O)O[C@H]1CC[C@]2(C)[C@H]3C(=O)C=C4[C@@H]5C[C@](C)(C(=O)N6CCCNCC6)CC[C@]5(C)CC[C@@]4(C)[C@]3(C)CC[C@H]2C1(C)C .
Data returned: active

Data request: Please let me know the test result on file for Cc1cc2nc3c4cc(O)ccc4n(CCN(C)C)c3nc2cc1C .
Data returned: active

Data request: Please let me know the test result on file for CC(C)=CCC[C@](C)(O)[C@H]1CC[C@]2(C)[C@@H]1CC[C@@H]1[C@@]3(C)C/C(=C/c4ccc(Br)cc4)C(=O)C(C)(C)[C@@H]3CC[C@]12C .
Data returned: inactive

---

Test system: IGROV1 ovarian
Assay: NCI-60 one-dose screen, 48 h
Conditions: 10 µM unless noted
About 83,000 compounds went through this panel and 20% of them were active in at least one assay; those are over-represented in the sample as a whole. The source made the active and inactive calls. How the source made its calls: active means growth percent below 10; inactive means the rest.
// allowed return values: label 1 = active, label 0 = inactive

Below, 3 compounds whose answers are already recorded.
Cc1ccc2c(c1)c(-c1nc(-c3c[nH]c4ncccc34)cs1)cn2C = label 0
O=C(/C=C/c1cccc(O)c1)c1ccccc1O = label 0
CC(C)(C)c1ccc(OCCCCCCCN2CCNCC2)cc1 = label 0

Data request: Please let me know the test result on file for COc1ccc(C2C(C#N)=C(N)Oc3c2sc2c(F)cccc32)cc1 (stereo unspecified) .
Data returned: label 0

Data request: Please let me know the test result on file for COc1c(N)c2c(c([N+](=O)[O-])c1OC)C(=O)OC2 .
Data returned: label 0

Data request: Please let me know the test result on file for COc1ccc(-c2nc3ccccn3c2-c2nc3ccc(Cl)cc3[nH]2)cc1 .
Data returned: label 0

Data request: Please let me know the test result on file for CCOc1ccc(NC(=O)c2ccccc2-c2ccccc2C(=O)O)cc1 .
Data returned: label 0

Data request: Please let me know the test result on file for CN(C)c1ccc(-c2ccc(-c3ccc(C(=N)N)c(F)c3)s2)cc1 .
Data returned: label 1

Data request: Please let me know the test result on file for CCCCCCCN(CCCCCCC)C(=N)c1ccnc2ccccc12 .
Data returned: label 1

Data request: Please let me know the test result on file for O=C(N/N=C\c1ccccc1O)C1CC1 .
Data returned: label 0

Data request: Please let me know the test result on file for Cc1cc(N2CCCCC2)nc(N(CCNc2ccnc3cc(Cl)ccc23)Cc2ccco2)n1 .
Data returned: label 0

---

Test system: HOP-92 NSCLC
Assay: NCI-60 one-dose screen, 48 h (100 = growth as untreated, 0 = no growth, -100 = all killed)
Details: 10 µM unless noted
The panel holds about 83,000 compounds, 20% with a hit somewhere; the sample as a whole holds those more often.
Categorized via growth: bottom bin: < 50%; middle bin: ≥ 50% and < 90%; top bin: ≥ 90%

O=C(/C=C/c1ccc2ccccc2c1)Nc1ncc(Cc2ccccc2)s1 = middle bin

Data request: Class? Entry: Cn1c(/C(C#N)=C/c2ccc3ccccc3c2)cc2ccccc21
Data returned: middle bin

Data request: Class? Entry: Cc1ccnc2c(OCc3ccccc3)cccc12
Data returned: middle bin
